Target: T1, cynomolgus Trop-2-His protein (cynomolgus, UniProt P09758 27-274 (human entry))
T1 construct: also called cynmolgus Trop-His; Kactus Cat #TRP-CM121; not shown: His tag
T1 chain: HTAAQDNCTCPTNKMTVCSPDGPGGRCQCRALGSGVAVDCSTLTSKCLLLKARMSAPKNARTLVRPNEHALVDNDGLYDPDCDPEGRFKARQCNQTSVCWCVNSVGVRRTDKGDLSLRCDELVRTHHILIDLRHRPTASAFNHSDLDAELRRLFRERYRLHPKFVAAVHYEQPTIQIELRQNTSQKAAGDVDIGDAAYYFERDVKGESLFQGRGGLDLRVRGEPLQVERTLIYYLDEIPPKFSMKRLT
Experiment: BLI (Gator Prime), LEM supernatant Ab on HFC probe
quantity: pKd
Units for pKd: none; it is -log10 of a concentration expressed in mol/L.

Some binders with known pKd results, for comparison:
binder	pKd
9A5 (antibody, V domains shown, Rabbit-derived clone; LEM construct: VH + rabbit IgG CH1 + human IgG1 CH2-CH3) VH: QEQLKESGGGLVQPGGSLTLSCKASGFDFNNYGVSWVRQAPGKGLEWIAYIYPTYHNTYYATWVNGRFTISSHNAQNTLYLQLNTLTAADTATYFCARDAGGTDYNFNLWGPGTLVTVSS VL: DVVMTQTPASVEAAVGGTVTINCQASQSIESYLAWYQQKPGQPPKLLIYEASKLASGVSSRFSGGGYGTEFTLTISGVECADAATYYCQQALTIGNVDNPFGGGSEVVVK	9.16
9F7 (antibody, V domains shown, Rabbit-derived clone; LEM construct: VH + rabbit IgG CH1 + human IgG1 CH2-CH3) VH: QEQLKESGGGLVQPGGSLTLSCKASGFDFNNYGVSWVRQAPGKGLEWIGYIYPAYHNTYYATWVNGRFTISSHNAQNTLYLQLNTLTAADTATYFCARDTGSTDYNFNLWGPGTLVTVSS VL: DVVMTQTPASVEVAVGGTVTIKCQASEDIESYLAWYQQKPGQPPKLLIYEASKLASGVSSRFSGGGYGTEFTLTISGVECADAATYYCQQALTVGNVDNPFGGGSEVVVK	9.84
1D10 (antibody, V domains shown, Rabbit-derived clone; LEM construct: VH + rabbit IgG CH1 + human IgG1 CH2-CH3) VH: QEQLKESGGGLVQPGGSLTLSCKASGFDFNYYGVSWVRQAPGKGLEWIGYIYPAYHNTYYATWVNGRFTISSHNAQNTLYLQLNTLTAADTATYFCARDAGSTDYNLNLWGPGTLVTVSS VL: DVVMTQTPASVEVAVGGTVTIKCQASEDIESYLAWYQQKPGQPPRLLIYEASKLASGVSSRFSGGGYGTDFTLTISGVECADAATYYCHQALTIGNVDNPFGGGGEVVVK	9.44
73C2 (antibody, V domains shown, Rabbit-derived clone; LEM construct: VH + rabbit IgG CH1 + human IgG1 CH2-CH3) VH: QSLEESGGGLVKPGGTLTLTCTVSGFDFSNYAVTWVRQAPGEGLEYIGFVGIYGDFYYANWAKGRFTISKTSSTTVTLQMPSLTVADTATYFCARGGLWTGNSYFDLWGPGTLVTVSS VL: YDMTQTPASVEVAVGGTVTINCQASESINRYLAWYQQKRGQPPKPLIYRAATLASGVPSRFKGSGSGTEYTLTISDLECADAATYYCQQGYGYSTVGNAFGGGTEVVVK	8.33

Give pKd for the following binder: 62A10 (antibody, V domains shown, Rabbit-derived clone; LEM construct: VH + rabbit IgG CH1 + human IgG1 CH2-CH3) VH: QSLVESGGGLVQPEGSLTLTCKASGFDFNNYAVTWVRQAPGEGLEYIGFIGIRGHIYYANWAKGRFTISKTSSTTMTLQMTSLTVADTATYFCARGGLWTGNSYFDLWGPGTLVTVSS VL: YDMTQTPASVEVAVGGTVTINCQASESISRYLAWYQQKPGQSPKPLIYRASTLASGVPSRFQGSGSGTEYTLTISDLECADAATYYCQQGYGYSTVDNAFGGGTEVVVK 8.90

Assign pKd to the following record: 72F12 (antibody, V domains shown, Rabbit-derived clone; LEM construct: VH + rabbit IgG CH1 + human IgG1 CH2-CH3) VH: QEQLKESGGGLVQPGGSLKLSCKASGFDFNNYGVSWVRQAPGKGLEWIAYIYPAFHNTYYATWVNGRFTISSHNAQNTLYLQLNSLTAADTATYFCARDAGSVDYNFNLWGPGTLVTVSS VL: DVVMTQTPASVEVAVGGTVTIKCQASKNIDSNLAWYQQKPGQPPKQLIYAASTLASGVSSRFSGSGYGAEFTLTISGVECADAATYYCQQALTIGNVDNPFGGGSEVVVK 9.28
